testSystem: T1, H278N mutant mouse delta opioid receptor (mouse), P32300
T1 chain: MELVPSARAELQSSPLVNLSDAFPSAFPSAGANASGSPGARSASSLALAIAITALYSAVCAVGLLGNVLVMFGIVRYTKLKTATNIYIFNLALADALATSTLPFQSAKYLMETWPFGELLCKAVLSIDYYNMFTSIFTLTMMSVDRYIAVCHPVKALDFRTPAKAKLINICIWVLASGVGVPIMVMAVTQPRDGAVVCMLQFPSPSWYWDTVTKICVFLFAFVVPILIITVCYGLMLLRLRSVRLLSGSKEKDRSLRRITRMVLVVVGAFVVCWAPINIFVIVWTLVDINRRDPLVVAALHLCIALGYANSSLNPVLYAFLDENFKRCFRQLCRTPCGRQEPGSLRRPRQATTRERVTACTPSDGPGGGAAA
experimentSummary: competition vs 3H-naltrindole, COS-7 membranes
Non-standard residues stand in square brackets, D forms with d. No end group written: not given here.
valueType: Ki (nM)

- binder: "Y[dS]GFLT [[D-Ser2, Leu5] enkephalin-Thr6 (DSLET)]"
  valueType: "Ki"
  valueUnit: "nM"
  quantitativeReadout: 0.5

Values from patent US20030211537A1
